- Measured target: T1, MDM2_(H. sapiens) SWIB domain (human (Homo sapiens))
- T1 construct: four residues left at the N-terminus after PreScission digestion, GPGS or GPMG; which of the two for this variant is in Excel File 1 in Data S1; MDM2, human, SWIB domain; the limits of the human construct itself are in Excel File 1 in Data S1; also called human MDM2; MDM2_(Human); source: E. coli BL21 (DE3) or BL21 (DE3) pLys, purified (Ni Sepharose or glutathione agarose, PreScission cleavage, …)
- Protocol: stopped-flow fluorescence kinetics; 10°C, 20 mM sodium phosphate pH 7.4, 150 mM NaCl, 1 mM TCEP; Trp23 emission; MDM2 constant at 0.5–2 μM, p53TAD varied 1–10 μM for k on; k off from displacement of the 1 μM:1 μM complex by 10–20 μM dansylated human p53TAD peptide; K D = k off/k on
- Measurement conditions: both partners purified
pKd: −log10 of the molar value. Ends that are not written are not given here.

>  <Binder>
SQDTFSDLWNQL (not fully specified (N-terminus); also: acetylated, site not given here) [p53TAD1R^AltAll]

>  <pKd>
7.62

$$$$
>  <Binder>
SQETFNHLWNML (not fully specified (N-terminus); also: acetylated, site not given here) [p53TAD1R^ML]

>  <pKd>
7.09

$$$$
>  <Binder>
SQETFNHLWNTL (not fully specified (N-terminus); also: acetylated, site not given here) [p53TAD_(Bilateria)^ML]

>  <pKd>
6.22

$$$$
>  <Binder>
SQETFSDLWNML (not fully specified (N-terminus); also: acetylated, site not given here) [p53TAD_(Fishes/Tetrapods)^ML]

>  <pKd>
8.10

$$$$
>  <Binder>
SQETFSDLWNLL (not fully specified (N-terminus); also: acetylated, site not given here) [p53TAD_(Reptiles/Mammals)^ML]

>  <pKd>
8.10

$$$$
>  <Binder>
SQESFSDLWNLL (not fully specified (N-terminus); also: acetylated, site not given here) [p53TAD_(Fishes/Tetrapods)^AltAll]

>  <pKd>
7.72

$$$$
>  <Binder>
SQETFDFLWKSL (not fully specified (N-terminus); also: acetylated, site not given here) [p53TAD_(Bilateria)^AltAll]

>  <pKd>
6.77

$$$$
>  <Binder>
SQETFSDLWNML (not fully specified (N-terminus); also: acetylated, site not given here) [p53TAD_(Reptiles/Mammals)^AltAll]

>  <pKd>
8.02

$$$$
